Measured melting point accompanies every entry in the list below.

Reference set, count: 4
OCC1OC(n2cnc3c(NCC4(c5ccccc5)CCCCC4)ncnc32)C(O)C1O (centres undefined)
87 to 89 °C
COc1ccc(CCN(C)CCOc2ccc(NC(=O)c3cccc4c3Nc3ccccc3S4)cc2)cc1OC
90 °C
CCN(CC)C(=O)/C=C/C(C)Sc1nc(N)cc(Cl)n1 (centres undefined)
152 to 153 °C
CCOC(=O)C1=C(C)Nc2cc[nH]c(=O)c2C1c1cccs1 (centres undefined)
284 to 285 °C

query: Name the reported melting point value associated with the molecule Cc1nn(-c2ccccn2)c2nc3cc(F)c(F)cc3c(Cl)c12
result: 175 to 176 °C

query: Form field: reported melting point of Cc1ccc(F)c(C2CC(=O)c3c(C)ccnc3C2)c1 (centres undefined)
result: 92 to 94 °C

query: Can you look up the measured melting point of CNC(=O)n1nc(-c2ccc(Cl)cc2)nc1N for me?
result: 193 to 196 °C

query: Record request: melting point value, item CNC(=O)C(Cc1ccc(OC)cc1)NC(=O)C(CC(C)C)C(CC(=O)NCC(=O)OC(C)(C)C)SC(C)=O (centres undefined)
result: 192 to 194 °C

query: Can you look up the measured melting point of CNC(=O)c1ccccc1Nc1nc(Nc2ccc3c(c2)CCC(F)(F)CC3)ncc1Cl for me?
result: 160 to 168 °C
